Values were extracted from patent US20230159510A1.

# Test system: HCT116 WT cells
# assay comment: HCT116 proliferation assay, WT cells (CellTiter-Glo, 6 days)
# Format: cell-based
# assay setup: Homo sapiens, HCT-116, 144 h, read-out: Prolif_HCT116-WT IC50
IC50 for assorted compounds
readout kind: IC50 (µM)

| compound | study target | measurement qualifier | obs value |
| --- | --- | --- | --- |
| C[C@H](c1cscn1)N(Cc1ccc(C(F)(F)F)nn1)C(=O)c1cnc2nc(N)c(Br)cc2c1 (single isomer, unassigned) | HCT116 WT cells | = | 1.74 |
| Cc1cc2cc(C(=O)N(Cc3ccc(C(F)(F)F)cn3)[C@@H]3CCCN(C)C3=O)ccc2nc1N (single isomer, unassigned) | HCT116 WT cells | = | 7.85 |
| Cc1cc2cc(C(=O)N(Cc3cncc(Cl)c3)Cc3ccc(C(F)(F)F)cn3)ccc2nc1N | HCT116 WT cells | > | 10 |
